# maps each entry to its pEC50
Biological target: GHSR1a (Homo sapiens, UniProt Q92847)
Sequence (Q92847 whole entry): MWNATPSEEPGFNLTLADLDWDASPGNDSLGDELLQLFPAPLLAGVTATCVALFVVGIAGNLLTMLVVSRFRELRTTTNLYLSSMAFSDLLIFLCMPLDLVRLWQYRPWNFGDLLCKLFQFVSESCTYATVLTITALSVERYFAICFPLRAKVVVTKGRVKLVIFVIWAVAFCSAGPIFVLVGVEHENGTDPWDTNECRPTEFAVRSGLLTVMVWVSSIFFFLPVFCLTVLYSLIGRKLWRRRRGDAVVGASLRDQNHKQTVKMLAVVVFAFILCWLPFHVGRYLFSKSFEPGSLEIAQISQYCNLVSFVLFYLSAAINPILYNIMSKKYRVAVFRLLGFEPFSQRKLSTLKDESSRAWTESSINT
Test: Calcium FLIPR assay, GHSR-1a agonism
Conditions: HEK293/GHSR1a cells
pEC50: −log10 of the molar value.

>  <COMPOUND>
CC(NC(=O)N(C)C1CCN(C)CC1)c1ccc(-c2cnc(C(N)=O)cn2)c(Cl)c1Cl (centres unmarked)

>  <pEC50>
< 4.52

$$$$

Inquiry: Param item = CC(NC(=O)N(C)C1CCN(C)CC1)c1ccc(-c2nccnn2)c(Cl)c1Cl (centres unmarked) ; retrieve measured pEC50.
Reply text: 7.66

Inquiry: Could you do the same for CC(NC(=O)N(C)C1CCN(C)CC1)c1ccc(-c2cnccn2)c(Cl)c1F (centres unmarked) , please?
Reply text: < 4.52

Inquiry: One more compound: COC(=O)c1cncc(-c2ccc(C(C)NC(=O)N(C)C3CCN(C)CC3)c(Cl)c2Cl)c1 (centres unmarked)
Reply text: < 4.52

Inquiry: Now try CN1CCC(N(C)C(=O)NC(c2ccc(-c3cnccn3)c(Cl)c2Cl)C(F)(F)F)CC1 (centres unmarked) .
Reply text: < 4.52

Inquiry: Again, but for CC(NC(=O)N(C)C1CCN(C)CC1)c1ccc(-c2ccc(C(=O)N(C)C)s2)c(Cl)c1Cl (centres unmarked)
Reply text: < 4.52

Inquiry: How about this compound: CC(NC(=O)N(C)C1CCN(C)CC1)c1ccc(-c2cn[nH]c2)c(Cl)c1Cl (centres unmarked)
Reply text: < 4.52

* * *

Experiment: Metabolic Stability (M = Mouse)
Format: in vitro ADME
MEASURED_PARAMETER: Metabolic Stability M

Illustrative cases are given below, each with its answer.
>  <MOLECULE>
CC(NC(=O)N(C)C1CCN(C)CC1)c1ccc(-c2cn[nH]c2)c(Cl)c1Cl (stereo not drawn) [Compound H0499]

>  <Metabolic Stability M>
Medium H Medium M

$$$$
>  <MOLECULE>
CC(NC(=O)N(C)C1CCN(C)CC1)c1ccc(-c2cncc(C(F)F)c2)c(Cl)c1Cl (stereo not drawn) [Compound H0637]

>  <Metabolic Stability M>
Medium H Medium M

$$$$
>  <MOLECULE>
CC(NC(=O)N(C)C1CCN(C)CC1)c1ccc(Br)c2ccccc12 (stereo not drawn) [Compound H0573]

>  <Metabolic Stability M>
Medium

$$$$
>  <MOLECULE>
CCN(C(=O)N[C@@H](C)c1ccc(-c2cnccn2)c(Cl)c1Cl)C1CCN(C)CC1 [Compound H0889]

>  <Metabolic Stability M>
High H High M

$$$$
>  <MOLECULE>
CC(NC(=O)N(C)C1CCN(C)CC1)c1ccc(-c2cncc(C3=CCCC3)c2)c(Cl)c1Cl (stereo not drawn) [Compound H0705]

>  <Metabolic Stability M>
High H High M

$$$$

Inquiry: Can you share its Metabolic Stability M? I mean this molecule: CC(NC(=O)N(C)C1CCN(C)CC1)c1ccc(-c2ccc(C(F)F)s2)c(Cl)c1Cl (stereo not drawn) [Compound H0654]
Reply text: Medium

Inquiry: Another molecule: CCC(NC(=O)N(C)C1CCN(C)CC1)c1ccc(-c2cncc(F)n2)c(Cl)c1Cl (stereo not drawn) [Compound H0863]
Reply text: High

Inquiry: Item: CC(NC(=O)N(C)C1CCN(C)CC1)c1ccc(C#Cc2cccs2)c(Cl)c1Cl (stereo not drawn) [Compound H0737]
Reply text: High H High M
